From: patent US9243044B2

biological target: T1, human fIIa (thrombin) (Homo sapiens, UniProt P00734); test: Chromogenic assay, fIIa (thrombin); type: biochemical; conditions: 200 nM
T1 construct: Human coagulation factors IIa (thrombin), Xa, XIa, XIIa, EGR-fXa; purchased Haematologic Technologies Inc (United States)
measured.attribute: effect on fIIa activity (in words)

{"molecule": "NAPTin-3 (protein, Sequence derived from Ancylostoma caninum or Synthetic) NPSCGENERHDECSRKECDPKCKYDGTEEKDDEKPVVCLTRVCYGDCICRDGFLRNKNGACVKAEDCELDNM", "measured.value": "without affecting"}
{"molecule": "NAPTin-2 (protein, Sequence derived from Ancylostoma caninum or Synthetic) NPSCGENERHDECSRKECDPKCKYDGTEEKDDEKPVVCLTRVCYGDCICRDGFLRNKNGACVKAEDCELDN", "measured.value": "without affecting"}
{"molecule": "NAPTin-5 (protein, Sequence derived from Ancylostoma caninum or Synthetic) NPSCGENERHDECSRKECDPKCKYDGTEEKDDEKPVVCLTRVCYGDCICRDGFLRNKNGACVKAEDCEL", "measured.value": "without affecting"}
